# STUDY TARGET: OCT1 WT (Homo sapiens, UniProt O15245)
# Sequence (O15245 whole entry): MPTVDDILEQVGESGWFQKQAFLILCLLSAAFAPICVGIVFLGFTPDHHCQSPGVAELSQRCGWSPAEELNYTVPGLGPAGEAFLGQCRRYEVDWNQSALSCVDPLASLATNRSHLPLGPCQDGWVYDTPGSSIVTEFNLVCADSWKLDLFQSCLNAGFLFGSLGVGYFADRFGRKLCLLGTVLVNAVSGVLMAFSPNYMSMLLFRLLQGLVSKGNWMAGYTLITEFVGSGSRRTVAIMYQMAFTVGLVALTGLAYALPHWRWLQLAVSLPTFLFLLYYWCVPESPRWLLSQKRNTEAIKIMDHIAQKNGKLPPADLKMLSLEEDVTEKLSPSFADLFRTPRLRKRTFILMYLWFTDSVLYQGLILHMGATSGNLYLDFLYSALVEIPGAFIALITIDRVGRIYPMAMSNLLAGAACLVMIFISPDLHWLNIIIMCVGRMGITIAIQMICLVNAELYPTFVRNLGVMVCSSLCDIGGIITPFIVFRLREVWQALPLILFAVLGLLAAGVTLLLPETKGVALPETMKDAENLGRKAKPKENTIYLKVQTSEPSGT
# PROTOCOL: Uptake screening (transport ratio over empty vector), HEK293 cells overexpressing OCT1 WT;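 also: intracellular substrate levels quantified by HPLC–tandem mass spectrometry after uptake in HBSS+ buffer at 37 °C, stable Flp-In HEK293 lines, fold change versus empty vector–transfected cells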
# Assay type: cell-based
# Design: expressed in transfected cells
# STUDY CONDITIONS: uptake ratio over empty vector, HEK293 cells overexpressing OCT1 WT
MEASUREMENT LABEL: Mean_transport_ratio_WT

>>> df
                                   compound  endpoint_result
0  O=C(O[C@H]1C[N+]2(CCCOc3ccccc3)CCC1CC2)C(O)(c1cccs1)c1cccs1 [(R)-Aclidinium]            5.059
1  CN1[C@@H]2CC[C@H]1C[C@@H](OC(=O)c1c[nH]c3ccccc13)C2            2.206
2  CC[N+](CC)(CC(=O)Nc1c(C)cccc1C)Cc1ccccc1           14.264
3  CN1CCN(CC(=O)N2c3ccccc3C(=O)Nc3cccnc32)CC1            1.911
4  CC(=O)OC(C)C[N+](C)(C)C (stereo not shown)           46.311
5  CC(C)[N+](C)(CCOC(=O)C1c2ccccc2Oc2ccccc21)C(C)C            8.263
6  CNCC(O)c1ccc(O)cc1 (stereo not shown) [Synephrine]             8.37
7  O=C(NCCNCC(O)COc1ccc(O)cc1)N1CCOCC1 (stereo not shown)           34.864
8  COc1cc2c(cc1OC)-c1cc3ccc(OC)c(OC)c3c[n+]1CC2            7.047
9  CC(C)N(CCC(C(N)=O)(c1ccccc1)c1ccccn1)C(C)C (stereo not shown) [Disopyramide]            1.334
